The values you see were collected from patent US9732087B2.

Assay target: human H4 receptor (Homo sapiens (Human), UniProt Q9H3N8)
Sequence (Q9H3N8 whole entry): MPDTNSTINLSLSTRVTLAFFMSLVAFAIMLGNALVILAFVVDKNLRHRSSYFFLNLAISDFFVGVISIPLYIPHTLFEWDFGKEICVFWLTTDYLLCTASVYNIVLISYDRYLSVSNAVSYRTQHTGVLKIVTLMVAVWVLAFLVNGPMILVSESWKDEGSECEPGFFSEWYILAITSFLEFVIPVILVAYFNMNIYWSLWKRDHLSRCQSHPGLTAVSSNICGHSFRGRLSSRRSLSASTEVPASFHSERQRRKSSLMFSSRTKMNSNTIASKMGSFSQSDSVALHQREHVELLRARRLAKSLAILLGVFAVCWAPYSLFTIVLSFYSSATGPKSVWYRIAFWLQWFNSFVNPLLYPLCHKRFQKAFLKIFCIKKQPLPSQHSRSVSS
Measurement notes: Binding assay on recombinant human histamine H4 receptor ([3H]histamine competition, SK-N-MC cell membranes)
Run parameters: membranes harvested with cell harvester; [3H]histamine 10 nM; average of results; read-out: Cell Harvester Ki
pKi: −log10 of the molar value.
Readout kind: pKi

• CC(C)(C)CNc1cc(N2CC[C@@H](N)C2)cnn1 = 6.89
• N[C@@H]1CCN(c2ccnc(NCc3ccc(F)cc3)n2)C1 = 6.85
• N[C@@H]1CCN(c2ccnc(NC3CC3)n2)C1 = 6.99
• CN[C@@H]1CCN(c2ccnc(NCc3ccc(C)cc3)n2)C1 = 6.84
• CN1CCN(c2ccnc(NC3CC4CCC3C4)n2)CC1 (centres unmarked) = 7.07
